Biological target: CXCR2 (Homo sapiens (Human), UniProt P25025)
Sequence (P25025 whole entry): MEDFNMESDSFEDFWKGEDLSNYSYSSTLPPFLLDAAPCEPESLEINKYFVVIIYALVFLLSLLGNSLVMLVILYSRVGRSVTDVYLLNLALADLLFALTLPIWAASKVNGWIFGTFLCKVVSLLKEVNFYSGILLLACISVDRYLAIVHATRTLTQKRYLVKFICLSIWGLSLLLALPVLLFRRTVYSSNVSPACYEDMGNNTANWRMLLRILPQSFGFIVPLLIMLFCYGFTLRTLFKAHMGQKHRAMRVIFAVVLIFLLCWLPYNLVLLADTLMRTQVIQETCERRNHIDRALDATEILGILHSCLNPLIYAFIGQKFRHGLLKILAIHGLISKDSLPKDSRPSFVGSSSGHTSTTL
Assay: Inhibition of CXCR2-mediated (GROα-induced) intracellular calcium release in human neutrophils (whole cell assay, Pharmacology Example 1)
Format: cell-based
Conditions: GROα 25 nM, FLIPR Calcium 3 dye, read-out: Inhibition of CXCR2 IC50
Procedure: Briefly, human neutrophils were suspended in HBSS^− (without Ca^2+ and Mg^2+) containing 10 mM HEPES and FLIPR Calcium 3 dye (3.1×10^7 cells in total volume 1.7 mL). […] The cell suspension was aliquoted into a 96-well Reading Plate (Corning) in a volume of 90 μL (10^5 cells/well). […] After 15 sec of reading the basal level of fluorescence by FlexStation II, 10 μL of GROα or HBSS^− were automatically transferred from the Compound Plate into the Reading Plate (final concentration of GROα was 25 nM). […]
# IC50 values compiled below
Report only the number, with the unit nM understood.

Worked examples, 3 molecules total:
{"molecule": "CN(Cc1ccccc1B(O)O)c1ccc(C(=O)Nc2ccc(F)cc2)cn1 [Compound 8]", "test.system": "CXCR2 (Homo sapiens (Human), UniProt P25025)", "observed": 1000}
{"molecule": "CN(Cc1ccccc1O)c1ccc(C(=O)Nc2ccc(F)cc2)cn1 [Compound 9]", "test.system": "CXCR2 (Homo sapiens (Human), UniProt P25025)", "observed": 586}
{"molecule": "CN(Cc1ccc(B(O)O)cc1)c1ccc(C(=O)Nc2ccc(F)cc2)cn1 [Compound 18]", "test.system": "CXCR2 (Homo sapiens (Human), UniProt P25025)", "observed": 247}

input: Fill in IC50 for record CN(Cc1ccc(B(O)O)cc1)c1ncc(C(=O)Nc2ccc(F)cc2)cn1 [Compound 19]
output: 244

input: Fill in IC50 for record O=C(Nc1ccc(F)cc1)c1ccc(NCc2ccccc2B(O)O)nc1 [Compound 10]
output: 1700

Values compiled from patent USRE47740E1.
